Tested on: TK-10 renal
Assay: NCI tumour cell line growth inhibition, 48 h
Each entry below carries its recorded TGI.

**Q:** Form field: TGI recorded for CC1=NN=C(C)C1N=Nc1ccc2nc(C)[nH]c2c1 with TK-10 renal (enter value)
**A:** > 100 µM

Others:
**Q:** Request: TGI, test system TK-10 renal, entry O=C1CN(c2ccccc2)Cc2nc(Cl)ccc2N1
**A:** > 100 µM

**Q:** And the next one, COC(=O)C(=O)C(C(=O)OC)C(=O)C(=O)Nc1c(C)cccc1C (centres undefined) ?
**A:** > 100 µM

**Q:** Next: COC(=O)C(=O)Cc1nc2ccccc2s1
**A:** > 100 µM

----------
Test system: LOX IMVI melanoma
Test: NCI tumour cell line growth inhibition, 48 h
Measured Property: TGI

Solved cases below.
**Q:** Write down the reported TGI of CC1=CC2C(C=C1)S(=O)(=O)N1CC21c1ccccc1 (stereo not drawn) , test system: LOX IMVI melanoma.
**A:** > 100 µM

**Q:** Quick one: CSc1ncnc2c1cnn2Cc1cn(COCCO)nn1
**A:** > 100 µM

**Q:** // next record CCOC(=O)N/N=C(/N)c1cccc(Br)c1
**A:** > 100 µM

**Q:** Record: O=C1NC2NC3NC(=O)NC3NC2N1 (stereo not drawn)
**A:** > 100 µM

**Q:** Please give the result for CCNC(=O)C(C)C1CCC2(C)C=CC(=O)C(C)=C2C1O (stereo not drawn) too.
**A:** > 100 µM

More entries:
**Q:** API: value(readout=TGI, system=LOX IMVI melanoma) for record COc1ccc(-c2cc(-c3ccc(Nc4nc(Nc5ccccc5)nc(Nc5ccc(Cl)cc5)n4)cc3)nc(N)n2)cc1
**A:** 39 µM

**Q:** What do you have for COc1cc(/C=C2\C(=O)N(Cc3ccc(Cl)cc3)c3ccccc32)cc(OC)c1OC ?
**A:** 3 µM

**Q:** Also O=[N+]([O-])c1ccc(C2=Nc3ccccc3S(=O)C(c3ccccc3)C2)cc1 (stereo not drawn) , if possible.
**A:** 29.3 µM

----------
# maps each entry to its TGI
Test system: HOP-92 NSCLC
Test: NCI tumour cell line growth inhibition, 48 h

**Q:** What value of TGI has been reported for the following compound? COCC(C)(C)N=CN1Cc2cc3ccccc3nc2C1
**A:** > 100 µM

**Q:** What do you get for COc1ccc(N2C(=O)c3c(c4[nH]c5ccccc5c4c4ccc(C(C)(C)C)cc34)C2=O)cc1 ?
**A:** 64.2 µM

**Q:** Try this compound next: O=C1C(Cl)N(c2c(Cl)cccc2Cl)C1c1c[nH]c2ccccc12 (stereo unspecified)
**A:** > 100 µM

**Q:** Now try CCN1CCN(c2nc(C)cc(N(CCCNc3ccnc4cc(Cl)ccc34)Cc3ccc4c(c3)OCO4)n2)CC1 .
**A:** 3.1 µM

***
**Q:** Record request: TGI value, item CC1(C)CCN2C(=O)C34CCCC3CC21S4 (stereo unspecified)
**A:** > 100 µM

**Q:** What do you have for COc1cc2ccc3c4ccccc4cnc3c2cc1OC ?
**A:** > 100 µM

**Q:** Same thing, different compound: CC1=NN(c2nc(N)nc(NS(=O)(=O)c3cc(C)c(Cl)cc3S)n2)C(C)(C)C1
**A:** > 10 µM

**Q:** Same thing, different compound: OCC1O[C@H](O[C@@H]2CCCN3CC(O)C(O)[C@@H]23)C(O)C(O)C1O (stereo partly specified)
**A:** > 100 µM

**Q:** Next entry: O=c1[nH]/c(=C/c2ccc3c(c2)OCO3)c(=O)[nH]/c1=C/c1ccc2c(c1)OCO2
**A:** > 10 µM

**Q:** # iterate: CN(C)c1ccc(/C=C/C(=O)c2ccc(O)cc2)cc1
**A:** > 100 µM

**Q:** Then NC1NC=NC2C1N=CN2C1OC(CO)C2[O][Sn][O]C21 (stereo unspecified) ?
**A:** > 100 µM

----------
Test system: SNB-75 CNS
Assay: NCI tumour cell line growth inhibition, 48 h
Measured Property: TGI (µM)
Kindly provide the numeric value in µM only, without the unit symbol.

**Q:** For the molecule COc1ccc2c(c1)OC(N)=C(C#N)C2c1cc(OC)c(OC)c(OC)c1 (stereo unspecified) , what TGI is on record?
**A:** 45.9

**Q:** Please do the same for CCOc1ccccc1N=Nc1ccc2oc(=O)c(C(C)=O)cc2c1 as well.
**A:** 43.2

Okay, next one:
**Q:** Name the recorded TGI for COc1ccc(N2C(=O)c3c(c4[nH]c5ccccc5c4c4ccc(C(C)(C)C)cc34)C2=O)cc1 .
**A:** 35.4

----------
Test system: KM12 colon
Test: NCI tumour cell line growth inhibition, 48 h; in the data active = GI50 below about 0.43 µM; inactive = the rest
Could you please pick one outcome from this set? true = active, false = inactive

**Q:** Please state the recorded outcome for this compound: COc1ccc(-c2cc(-c3ccc(Nc4nc(Nc5ccccc5)nc(Nc5ccc(Cl)cc5)n4)cc3)nc(N)n2)cc1
**A:** false

Others:
**Q:** Fill in: this test's call for CC(C)(C)c1cc(C(=O)Nc2ccccc2C(=O)NCCN)cc(C(C)(C)C)c1 is ___
**A:** false

**Q:** Please give the result for CCOC(=O)[C@@H](C)C[C@H](Cc1ccccc1)NC(=O)c1csc([C@@H](C[C@H](C(C)C)N(C)C(=O)[C@@H](NC(=O)[C@H]2CCCCN2C)C(C)(C)CC)OC(C)=O)n1 too.
**A:** true

----------
System: SK-OV-3 ovarian
Test: NCI tumour cell line growth inhibition, 48 h; in the data active = GI50 below about 0.43 µM; inactive = the rest
Would you mind answering with one of these outcomes? y = active, n = inactive

Look over these answered cases.
**Q:** Fill in: this test's call for CCCCCC(=O)N[C@@H](c1ccco1)[C@@H](O)C(=O)O[C@H]1C[C@@]2(O)[C@@H](OC(=O)c3ccccc3)[C@@H]3[C@]4(OC(C)=O)CO[C@@H]4C[C@H](O)[C@@]3(C)C(=O)[C@H](OC(C)=O)C(=C1C)C2(C)C is ___
**A:** y

**Q:** Could you do the same for CCOC(=O)[C@@H](C)C[C@H](Cc1ccccc1)NC(=O)c1csc([C@@H](C[C@H](C(C)C)N(C)C(=O)[C@@H](NC(=O)[C@H]2CCCCN2C)C(C)(C)CC)OC(C)=O)n1 , please?
**A:** y

Continue with the compound presented below.
**Q:** Per the records of this test, what outcome belongs to Cn1cc(/C=C\[N+](=O)[O-])c2ccccc21 ?
**A:** n

----------
System: MCF7 breast
Experiment: NCI tumour cell line growth inhibition, 48 h
Measured Property: TGI (µM)
Report as a plain number; the unit µM is understood.

Here are 4 molecules together with their reported answers.
**Q:** What value of TGI has been reported for the following molecule? O=C1Nc2ccc(Br)cc2C12CC(c1ccccc1)=NN2 (stereo not given)
**A:** 64.5

**Q:** Ok, now COC(=O)C(CC(C)C)NC(=O)C(NC(=O)c1ccc(-c2ccc(Cl)cc2Cl)o1)C(C)C (stereo not given)
**A:** 44.7

**Q:** Record: CS(=O)(=O)N1CC(CCl)c2ccc(NO)cc21 (stereo not given)
**A:** 35.5

**Q:** # iterate: O=C1/C(=C/c2ccc(Cl)c(Cl)c2)CN(C(=O)C(Cl)Cl)C/C1=C\c1ccc(Cl)c(Cl)c1
**A:** 1.37

Now turn to the next molecule.
**Q:** Given the molecule COc1ccc(Nc2nc3ccccc3n3cccc23)cc1OC , what is its reported TGI?
**A:** 29.6

----------
Test system: SNB-75 CNS
Assay: NCI tumour cell line growth inhibition, 48 h
Below: a set of entries, each annotated with reported TGI.

**Q:** Name the reported TGI value associated with the compound O=C1[C@@H]2C(c3ccc(Br)cc3)=NO[C@@H]2C(=O)N1c1ccc(Cc2ccc(N3C(=O)[C@H]4C(c5ccc(Br)cc5)=NO[C@H]4C3=O)cc2)cc1
**A:** > 40 µM

Next:
**Q:** May I ask what TGI has been recorded for COC1C2C[C@@H](O)CCC2C(C(=O)OCCl)C[C@H]1O (stereo partly drawn) ?
**A:** > 100 µM

**Q:** Then what about the compound CCCCC1=CSC(c2ccccc2)=C(c2ccccc2)S1 ?
**A:** > 100 µM

----------
Listing: TGI of selected compounds
Tested on: MOLT-4 leukemia
Assay: NCI tumour cell line growth inhibition, 48 h

Here is how some compounds turned out for TGI.
**Q:** // returns reported TGI for input CC(C)(C)c1cc(C(=O)Nc2ccccc2C(=O)NCCN)cc(C(C)(C)C)c1
**A:** 4.86 µM

**Q:** How about this compound: COc1cccc2c1-c1nc(N)c3c(OC)cccc3c1C2=O
**A:** > 100 µM

**Q:** And what about the compound C=CCCC1(O)C(O)C(CO)O[C@H](O[C@@]2(CO)OC(CO)C(O)C2O)C1O (some centres undefined) ?
**A:** > 100 µM

Continue with the compound presented below.
**Q:** Looking for the measured TGI of CC(C)N(C(=O)C12C3C4C1C1C2C3C41C#N)C(C)C (centres undefined) , can you help?
**A:** > 100 µM
